Test system: 966289-007-R4-J1-PDC complex spheroid viability;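 note: spheroids exposed to the agents for seven days before readout; percent viability relative to DMSO vehicle control wells taken as 100%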
assay name: Anticancer human tumor 966289-007-R4-J1-PDC patient-derived pancreatic adenocarcinoma cell line growth inhibition [GQUAD]; active = viability on the fitted dose curve at most 10% of control; inactive = the rest
condition parameters: second compound 0.1 µM; first compound 0.1 µM
Entry note: the call must match one of true (1) for active, false (0) for inactive

Please review the entries below; each comes with its answer.
>>> assigned_category("Nc1ccn(C2OC(CO)C(O)C2(F)F)c(=O)n1 (stereo not given) + CN(C)c1ccc(Nc2c3ccc(NC(=O)CCN4CCCC4)cc3nc3cc(NC(=O)CCN4CCCC4)ccc23)cc1")
"true (1)"
>>> assigned_category("O=C(NO)c1cnc(N2CCN(S(=O)(=O)c3ccc4ccccc4c3)CC2)nc1 + Cc1[nH]c2ccc(F)cc2c1-c1nc2c3cccnc3c3ncccc3c2[nH]1")
"false (0)"
>>> assigned_category("CC(=O)O[C@H]1C(=O)[C@@]2(C)[C@H]([C@H](OC(=O)c3ccccc3)[C@]3(O)C[C@H](OC(=O)[C@H](O)[C@@H](NC(=O)c4ccccc4)c4ccccc4)C(C)=C1C3(C)C)[C@]1(OC(C)=O)CO[C@@H]1C[C@@H]2O + CN(C)c1ccc(Nc2c3ccc(NC(=O)CCN4CCCC4)cc3nc3cc(NC(=O)CCN4CCCC4)ccc23)cc1")
"true (1)"

Just curious, what result did C=CC(=O)N1CCN(c2nc(=O)n(-c3c(C)ccnc3C(C)C)c3nc(-c4c(O)cccc4F)c(F)cc23)C(C)C1 (stereo not given) + Cc1cnc(CNC(=O)c2c(=O)c3ccc(N4CCCN(C)CC4)nc3n3c2sc2ccccc23)cn1 get here?
false (0)

For C#Cc1c(F)ccc2cc(O)cc(-c3ncc4c(N5CC6CCC(C5)N6)nc(OCC56CCCN5CC(F)C6)nc4c3F)c12 (stereo not given) + Cc1cnc(CNC(=O)c2c(=O)c3ccc(N4CCCN(C)CC4)nc3n3c2sc2ccccc23)cn1 , which call appears in the assay record?
false (0)

Values were extracted from PubChem BioAssay AID2060488.
